- targetOrSystem: UniProtKB O14965
- method: AURKA degradation, Simple Western;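 as to AURKA Degradation 24h @1000nM: measured in NGP neuroblastoma cells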
- Type: cell-based
- Set-up: Representative Western blot showing levels of endogenous proteins MDR1, MYCN, AURKA, and CRBN in untreated cell lines; endogenous in cells; host or cells: NGP, IMR-32, SJNB-8, SK-N-BE(2)-C, SK-N-SH, SK-N-AS, SJNB-1, RPE, HEK293T
- conditionLabel: 24h, 1000nM
Parameter AURKA Degradation 24h @1000nM: see the listing below.

molecule	AURKA Degradation 24h @1000nM
O=C1CCN(c2ccc(N3CCN(CC4CN(C(=O)[C@]5(Cc6cccc(Nc7nccs7)n6)CC[C@@H](Oc6cccc(Cl)c6F)CC5)C4)CC3)nc2)C(=O)N1	88
Cc1cc(Nc2ccc(F)c(CC3(C(=O)N4CCC(CN5CCC(c6ccc(CN7CCC(=O)NC7=O)cn6)CC5)CC4)CCN(Cc4cccc(Cl)c4F)CC3)n2)n[nH]1	59
O=C1CCC(N2C(=O)c3cccc(OCCOCCOCCN4CCN(C(=O)[C@]5(Cc6cccc(Nc7nccs7)n6)CC[C@@H](Oc6cccc(Cl)c6F)CC5)CC4)c3C2=O)C(=O)N1 (some centres unmarked)	77
O=C1CCC(Nc2ccc(N3CCN(C4CN(C(=O)[C@]5(Cc6cccc(Nc7nccs7)n6)CC[C@@H](Oc6cccc(Cl)c6F)CC5)C4)CC3)nc2)C(=O)N1 (some centres unmarked)	90
Cc1cc(Nc2ccc(F)c(CC3(C(=O)N4CC(CN5CCN(c6ccc(N7CCC(=O)NC7=O)cn6)CC5)C4)CCN(Cc4cccc(Cl)c4F)CC3)n2)n[nH]1	89
O=C1CCC(Nc2ccc(N3CCN(C(=O)COCCOCCNC(=O)[C@]4(Cc5cccc(Nc6nccs6)n5)CC[C@@H](Oc5cccc(Cl)c5F)CC4)CC3)cc2)C(=O)N1 (some centres unmarked)	75
O=C1CCN(Cc2ccc(C3CCN(CC4CCN(C(=O)[C@]5(Cc6cccc(Nc7nccs7)n6)CC[C@@H](Oc6cccc(Cl)c6F)CC5)CC4)CC3)nc2)C(=O)N1	82
O=C1CCN(c2ccc(N3CCN(C4CCN(C(=O)[C@]5(Cc6cccc(Nc7nccs7)n6)CC[C@@H](Oc6cccc(Cl)c6F)CC5)C4)CC3)nc2)C(=O)N1 (some centres unmarked)	71
O=C1CCC(Nc2ccc(N3CCN(CC4CCN(C(=O)[C@]5(Cc6cccc(Nc7nccs7)n6)CC[C@@H](Oc6cccc(Cl)c6F)CC5)CC4)CC3)c(F)c2)C(=O)N1 (some centres unmarked)	93
O=C1CCN(c2ccc(N3CCN(CC4CCN(C(=O)[C@]5(Cc6cccc(Nc7nccs7)n6)CC[C@@H](Oc6cccc(Cl)c6F)CC5)C4)CC3)nc2)C(=O)N1 (some centres unmarked)	87
O=C1CCC(Nc2ccc(N3CCN(CC4CN(C(=O)[C@]5(Cc6cccc(Nc7nccs7)n6)CC[C@@H](Oc6cccc(Cl)c6F)CC5)C4)CC3)cc2)C(=O)N1 (some centres unmarked)	88

----------
- targetOrSystem: UniProtKB O14965
- method: AURKA degradation, Simple Western
- Assay type: cell-based
- Design: Representative Western blot showing levels of endogenous proteins MDR1, MYCN, AURKA, and CRBN in untreated cell lines; endogenous in cells; host or cells: NGP, IMR-32, SJNB-8, SK-N-BE(2)-C, SK-N-SH, SK-N-AS, SJNB-1, RPE, HEK293T
- conditionLabel: read-out: AURKA DC50
Mark each entry satisfied if its DC50 sits below 4 nM, and not satisfied for all others.

molecule	classLabel
O=C1CCN(c2ccc(N3CCN(CC4CCN(C(=O)[C@]5(Cc6cccc(Nc7nccs7)n6)CC[C@@H](Oc6cccc(Cl)c6F)CC5)CC4)CC3)nc2)C(=O)N1	not satisfied
Cc1cc(Nc2ccc(F)c(CC3(C(=O)N4CCC(F)(CN5CCN(c6ccc(N7CCC(=O)NC7=O)cn6)CC5)CC4)CCN(Cc4cccc(Cl)c4F)CC3)n2)n[nH]1	satisfied
O=C1CCC(Nc2ccc(N3CCN(CC4CN(C(=O)[C@]5(Cc6cccc(Nc7nccs7)n6)CC[C@@H](Oc6cccc(Cl)c6F)CC5)C4)CC3)cc2)C(=O)N1 (some centres unmarked)	not satisfied
O=C1CCC(Nc2ccc(N3CCN(C4CN(C(=O)[C@]5(Cc6cccc(Nc7nccs7)n6)CC[C@@H](Oc6cccc(Cl)c6F)CC5)C4)CC3)c(F)c2)C(=O)N1 (some centres unmarked)	not satisfied

----------
Recorded pDC50 for the following compounds
- targetOrSystem: AURKA (Homo sapiens)
- method: AURKA degradation, Simple Western
- Assay type: cell-based
- Set-up: Representative Western blot showing levels of endogenous proteins MDR1, MYCN, AURKA, and CRBN in untreated cell lines; endogenous in cells; host or cells: NGP, IMR-32, SJNB-8, SK-N-BE(2)-C, SK-N-SH, SK-N-AS, SJNB-1, RPE, HEK293T
- conditionLabel: AURKA degradation

compound	pDC50
Cc1cc(Nc2ccc(F)c(CC3(C(=O)N4CCC(CN5CCN(c6ccc(N7CCC(=O)NC7=O)cn6)CC5)CC4)CCN(Cc4cccc(Cl)c4F)CC3)n2)n[nH]1	8,09
O=C1CCC(Nc2ccc(N3CCN(C4CN(C(=O)[C@]5(Cc6cccc(Nc7nccs7)n6)CC[C@@H](Oc6cccc(Cl)c6F)CC5)C4)CC3)c(F)c2)C(=O)N1 (stereo partly drawn)	8,2
O=C1CCC(Nc2ccc(N3CCN(CCNC(=O)[C@]4(Cc5cccc(Nc6nccs6)n5)CC[C@@H](Oc5cccc(Cl)c5F)CC4)CC3)cc2)C(=O)N1 (stereo partly drawn)	7,9
O=C1CCN(c2ccc(N3CCN(CC4CCN(C(=O)[C@]5(Cc6cccc(Nc7nccs7)n6)CC[C@@H](Oc6cccc(Cl)c6F)CC5)C4)CC3)nc2)C(=O)N1 (stereo partly drawn)	8,47
O=C1CCC(N2C(=O)c3ccc(N4CCN(CCNC(=O)[C@]5(Cc6cccc(Nc7nccs7)n6)CC[C@@H](Oc6cccc(Cl)c6F)CC5)CC4)cc3C2=O)C(=O)N1 (stereo partly drawn)	8,32
Cc1cc(Nc2ccc(F)c(CC3(C(=O)N4CC(N5CCN(c6ccc(NC7CCC(=O)NC7=O)cc6F)CC5)C4)CCN(Cc4cccc(Cl)c4F)CC3)n2)n[nH]1 (stereo not drawn)	8,11

----------
- targetOrSystem: AURKA (Homo sapiens)
- method: AURKA degradation, Simple Western;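 as to AURKA Degradation 24h @1000nM: measured in NGP neuroblastoma cells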
- Format: cell-based
- Design: Representative Western blot showing levels of endogenous proteins MDR1, MYCN, AURKA, and CRBN in untreated cell lines; endogenous in cells; host or cells: NGP, IMR-32, SJNB-8, SK-N-BE(2)-C, SK-N-SH, SK-N-AS, SJNB-1, RPE, HEK293T
- conditionLabel: 24h, 1000nM
Recorded AURKA Degradation 24h @1000nM values for a group of molecules are listed next.

molecule	AURKA Degradation 24h @1000nM
Cc1cc(Nc2ccc(F)c(CC3(C(=O)N4CCC(F)(C(=O)N5CCC(c6ccc(N7CCC(=O)NC7=O)cn6)CC5)CC4)CCN(Cc4cccc(Cl)c4F)CC3)n2)n[nH]1 [PROTAC 38]	90
O=C1CCC(N2C(=O)c3ccc(N4CCN(CCNC(=O)[C@]5(Cc6cccc(Nc7nccs7)n6)CC[C@@H](Oc6cccc(Cl)c6F)CC5)CC4)cc3C2=O)C(=O)N1 (stereo partly drawn) [PROTAC 4]	93
Cc1cc(Nc2ccc(F)c(CC3(C(=O)N4CC(N5CCN(c6ccc(NC7CCC(=O)NC7=O)cc6F)CC5)C4)CCN(Cc4cccc(Cl)c4F)CC3)n2)n[nH]1 (stereo not drawn) [PROTAC 29]	84

----------
In this section, each of the compounds is paired with its reported GI50.
- Test system: NGP
- method: IncuCyte live-cell imaging, antiproliferative effect
- Format: cell-based
- conditionLabel: Homo sapiens, 72 h, read-out: pGI50 (converted)
measurementName: GI50 (nM)

compound	measurement
Cc1cc(Nc2ccc(F)c(CC3(C(=O)N4CCC(F)(CN5CCC(c6ccc(N7CCC(=O)NC7=O)cn6)CC5)CC4)CCN(Cc4cccc(Cl)c4F)CC3)n2)n[nH]1	44.7
O=C1CCC(Nc2ccc(N3CCN(C4CN(C(=O)[C@]5(Cc6cccc(Nc7nccs7)n6)CC[C@@H](Oc6cccc(Cl)c6F)CC5)C4)CC3)nc2)C(=O)N1 (some centres unmarked)	19.1
O=C1CCC(Nc2ccc(N3CCN(C(=O)[C@]4(Cc5cccc(Nc6nccs6)n5)CC[C@@H](Oc5cccc(Cl)c5F)CC4)CC3)cc2)C(=O)N1 (some centres unmarked)	708
O=C1CCC(N2C(=O)c3ccc(N4CCN(C(=O)CNC(=O)[C@]5(Cc6cccc(Nc7nccs7)n6)CC[C@@H](Oc6cccc(Cl)c6F)CC5)CC4)cc3C2=O)C(=O)N1 (some centres unmarked)	51.3
O=C1CCC(Nc2ccc(N3CCN(C(=O)CNC(=O)[C@]4(Cc5cccc(Nc6nccs6)n5)CC[C@@H](Oc5cccc(Cl)c5F)CC4)CC3)cc2)C(=O)N1 (some centres unmarked)	45.7

----------
AURKA (Homo sapiens, UniProt O14965) Ki data
Sequence (O14965 whole entry): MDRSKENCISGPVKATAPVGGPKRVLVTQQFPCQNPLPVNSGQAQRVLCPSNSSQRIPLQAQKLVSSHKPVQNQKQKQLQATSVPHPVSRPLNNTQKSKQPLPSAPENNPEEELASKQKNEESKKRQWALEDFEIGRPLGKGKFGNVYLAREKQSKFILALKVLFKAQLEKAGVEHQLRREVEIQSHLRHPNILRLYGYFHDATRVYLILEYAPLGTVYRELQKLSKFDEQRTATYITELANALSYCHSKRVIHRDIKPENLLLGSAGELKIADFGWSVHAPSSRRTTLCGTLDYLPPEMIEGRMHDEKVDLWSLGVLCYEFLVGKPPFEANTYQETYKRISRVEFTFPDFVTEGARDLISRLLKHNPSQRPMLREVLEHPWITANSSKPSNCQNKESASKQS
measurementName: Ki (nM)

compound	measurement
Cc1cc(Nc2ccc(F)c(CC3(C(=O)N4CCC(F)(CN5CCN(c6ccc(N7CCC(=O)NC7=O)cn6)CC5)CC4)CCN(Cc4cccc(Cl)c4F)CC3)n2)n[nH]1	2
O=C1CCC(N2C(=O)c3cccc(OCCOCCOCCOCCNC(=O)[C@]4(Cc5cccc(Nc6nccs6)n5)CC[C@@H](Oc5cccc(Cl)c5F)CC4)c3C2=O)C(=O)N1 (stereo partly drawn) [SK2188, reference compound]	2
O=C1CCN(c2ccc(N3CCN(CC4CCN(C(=O)[C@]5(Cc6cccc(Nc7nccs7)n6)CC[C@@H](Oc6cccc(Cl)c6F)CC5)CC4)CC3)nc2)C(=O)N1	1
